Ref: patent US10138227B2

biological target: CFTR ΔF508 mutant (Homo sapiens, UniProt P13569, DEL508-508); construct: expressed in transfected cells; host or cells: CFBE41o- cells transduced with adenoviral vectors; assay: YFP-halide influx assay for the CFTR-ΔF508 mutation; type: cell-based; settings: CFBE41o- cells expressing CFTR ΔF508 and YFP reporter; forskolin 10.67 μM
Sequence (P13569 with tags, fused parts or gaps DEL508-508): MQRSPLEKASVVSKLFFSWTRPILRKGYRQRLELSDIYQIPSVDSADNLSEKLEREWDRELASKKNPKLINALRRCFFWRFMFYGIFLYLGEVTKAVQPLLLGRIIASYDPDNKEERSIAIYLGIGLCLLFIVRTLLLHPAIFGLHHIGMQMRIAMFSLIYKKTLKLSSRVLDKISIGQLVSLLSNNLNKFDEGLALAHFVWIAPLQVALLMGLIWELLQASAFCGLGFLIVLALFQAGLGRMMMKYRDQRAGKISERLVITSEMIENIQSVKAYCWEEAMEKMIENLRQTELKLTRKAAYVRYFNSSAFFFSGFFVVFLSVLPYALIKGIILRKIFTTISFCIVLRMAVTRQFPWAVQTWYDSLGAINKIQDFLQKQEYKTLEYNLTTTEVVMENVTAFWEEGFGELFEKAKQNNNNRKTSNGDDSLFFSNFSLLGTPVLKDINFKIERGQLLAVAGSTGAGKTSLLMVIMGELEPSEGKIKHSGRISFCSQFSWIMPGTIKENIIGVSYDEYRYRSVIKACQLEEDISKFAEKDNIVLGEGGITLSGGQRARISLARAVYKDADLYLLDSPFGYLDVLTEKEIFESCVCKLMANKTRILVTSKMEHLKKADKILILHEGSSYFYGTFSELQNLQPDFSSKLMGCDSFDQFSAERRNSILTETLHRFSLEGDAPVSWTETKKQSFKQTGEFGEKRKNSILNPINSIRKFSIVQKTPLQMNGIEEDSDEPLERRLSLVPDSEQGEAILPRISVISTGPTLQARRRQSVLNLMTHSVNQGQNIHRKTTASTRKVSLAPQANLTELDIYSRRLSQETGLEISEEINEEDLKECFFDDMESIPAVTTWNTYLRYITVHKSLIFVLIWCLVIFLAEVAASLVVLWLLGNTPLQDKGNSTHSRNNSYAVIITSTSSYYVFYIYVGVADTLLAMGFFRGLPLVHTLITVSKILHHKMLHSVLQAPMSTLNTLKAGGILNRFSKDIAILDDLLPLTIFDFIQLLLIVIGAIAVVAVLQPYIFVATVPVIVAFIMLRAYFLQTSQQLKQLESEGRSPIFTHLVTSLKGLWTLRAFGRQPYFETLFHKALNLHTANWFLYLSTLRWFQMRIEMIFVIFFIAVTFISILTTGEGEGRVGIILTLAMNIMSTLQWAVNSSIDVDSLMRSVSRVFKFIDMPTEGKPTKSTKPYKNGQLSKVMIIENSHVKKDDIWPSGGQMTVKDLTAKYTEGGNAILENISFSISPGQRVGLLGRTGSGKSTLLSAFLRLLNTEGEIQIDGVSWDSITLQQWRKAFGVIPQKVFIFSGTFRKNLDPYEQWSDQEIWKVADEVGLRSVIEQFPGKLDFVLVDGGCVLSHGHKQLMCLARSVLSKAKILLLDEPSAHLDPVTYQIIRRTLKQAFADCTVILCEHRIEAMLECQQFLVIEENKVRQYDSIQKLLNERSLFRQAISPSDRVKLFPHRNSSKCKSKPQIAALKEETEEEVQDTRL
REPORTED_METRIC: % Activation (%)
// note: answer is a bare numeric in %

Some solved cases for reference:
CC(C)(C)c1noc(-c2ncc(S(=O)(=O)c3ccc(OC(F)(F)F)cc3)cc2N)n1    12.02
CCOCc1nnc(-c2ncc(S(=O)(=O)c3ccc(OC(F)(F)F)cc3)cc2N)o1    102.93
Nc1cc(S(=O)(=O)c2ccc(OC(F)(F)F)cc2)cnc1-c1nnc(C[C@@H]2CCCO2)o1    106.65
CO[C@@H](C)c1nnc(-c2ncc(S(=O)(=O)c3ccc(OC(F)(F)F)cc3)cc2N)s1    100.92
Nc1c(-c2nnc(CO)o2)ncc(S(=O)(=O)c2ccc(OC(F)(F)F)cc2)c1Cl    93.64

## Input # query: % Activation | item Nc1cc(S(=O)(=O)c2ccc(OC(F)(F)F)cc2)cnc1-c1nnc(CNC(=S)C2CC2)s1 | system: CFTR ΔF508 mutant (Homo sapiens, UniProt P13569, DEL508-508)
## Output 106.2

## Input # query: % Activation | item Nc1cc(S(=O)(=O)c2ccc(OC(F)(F)F)cc2)cnc1-c1nnc(C[C@@H]2CCCO2)s1 | system: CFTR ΔF508 mutant (Homo sapiens, UniProt P13569, DEL508-508)
## Output 102.85

## Input # query: % Activation | item Nc1cc(S(=O)(=O)c2ccc(OC(F)(F)F)cc2)cnc1-c1nnc(COc2cccnc2)s1 | system: CFTR ΔF508 mutant (Homo sapiens, UniProt P13569, DEL508-508)
## Output 96.45

* * *

Biological target: CFTR-G1349D (Homo sapiens, UniProt P13569, G1349D)
Construct: expressed in transfected cells; HEK293 with plasmid vectors inferred from the G551D protocol, to which the assay is called similar
Sequence (P13569 whole entry G1349D): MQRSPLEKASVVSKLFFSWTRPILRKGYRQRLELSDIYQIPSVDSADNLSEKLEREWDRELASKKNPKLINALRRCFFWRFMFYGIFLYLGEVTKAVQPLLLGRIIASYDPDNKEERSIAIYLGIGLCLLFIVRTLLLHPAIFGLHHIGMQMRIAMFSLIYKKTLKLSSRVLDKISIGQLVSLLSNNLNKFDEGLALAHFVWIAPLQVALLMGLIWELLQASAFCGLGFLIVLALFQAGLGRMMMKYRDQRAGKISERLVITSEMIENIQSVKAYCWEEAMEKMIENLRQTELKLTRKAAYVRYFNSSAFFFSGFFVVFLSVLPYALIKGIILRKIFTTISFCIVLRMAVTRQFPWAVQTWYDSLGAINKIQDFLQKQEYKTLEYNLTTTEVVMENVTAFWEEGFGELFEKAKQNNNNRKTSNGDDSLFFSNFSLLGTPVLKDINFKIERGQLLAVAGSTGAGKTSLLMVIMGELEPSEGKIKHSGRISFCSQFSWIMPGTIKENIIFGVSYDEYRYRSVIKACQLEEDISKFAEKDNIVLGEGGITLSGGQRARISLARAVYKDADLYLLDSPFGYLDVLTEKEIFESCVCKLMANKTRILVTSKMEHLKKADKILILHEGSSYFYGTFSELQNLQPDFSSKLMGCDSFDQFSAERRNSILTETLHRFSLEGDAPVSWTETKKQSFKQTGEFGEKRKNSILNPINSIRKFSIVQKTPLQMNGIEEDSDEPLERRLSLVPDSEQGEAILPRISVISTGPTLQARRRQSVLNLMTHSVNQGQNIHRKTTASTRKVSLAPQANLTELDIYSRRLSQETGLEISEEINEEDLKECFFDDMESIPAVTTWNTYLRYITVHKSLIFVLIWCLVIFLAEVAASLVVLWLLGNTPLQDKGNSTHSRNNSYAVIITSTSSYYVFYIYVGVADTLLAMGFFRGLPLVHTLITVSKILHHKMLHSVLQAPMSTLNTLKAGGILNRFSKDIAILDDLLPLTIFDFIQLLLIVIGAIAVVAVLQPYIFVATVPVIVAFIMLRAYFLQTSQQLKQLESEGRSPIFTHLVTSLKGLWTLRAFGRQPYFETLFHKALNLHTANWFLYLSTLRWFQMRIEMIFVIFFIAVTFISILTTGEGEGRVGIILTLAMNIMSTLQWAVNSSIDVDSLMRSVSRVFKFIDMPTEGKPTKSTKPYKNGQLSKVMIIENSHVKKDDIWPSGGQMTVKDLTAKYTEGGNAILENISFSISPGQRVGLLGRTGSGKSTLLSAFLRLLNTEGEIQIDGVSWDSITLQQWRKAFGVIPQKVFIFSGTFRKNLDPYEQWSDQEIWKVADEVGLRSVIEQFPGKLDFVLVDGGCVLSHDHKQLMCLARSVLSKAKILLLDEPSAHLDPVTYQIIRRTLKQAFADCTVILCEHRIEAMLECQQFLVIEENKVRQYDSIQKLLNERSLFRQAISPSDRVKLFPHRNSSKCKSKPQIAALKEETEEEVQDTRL
Assay: YFP-halide influx assay for the CFTR-G1349D
Assay type: cell-based
Procedure: The YFP halide influx assay measured the functionality of the cystic fibrosis Transmembrane Conductance regulator (CFTR) channels. The assay was used to evaluate the capacity of compounds to increase the channel opening of existing mutant CFTR channels in the membrane. […] The I^−-induced quenching of fluorescence was recorded immediately after injection of I^− for 7 seconds. […]
REPORTED_METRIC: EC50 (nM)
// note: answer is a bare numeric in nM

CC(O)(c1nnc(-c2ncc(S(=O)(=O)c3ccc(OC(F)(F)F)cc3)cc2N)o1)C(F)(F)F (centres unmarked) [Compound 3]    44.9

Let us examine a further case.
## Input Value lookup for EC50; key = Nc1cc(S(=O)(=O)c2ccc(OC(F)(F)F)cc2)cnc1-c1nnc(CO)o1 [Compound 1]
## Output 137

* * *

biological target: CFTR ΔF508 mutant (Homo sapiens, UniProt P13569, DEL508-508); construct: expressed in transfected cells; host or cells: CFBE41o- cells transduced with adenoviral vectors; assay: YFP-halide influx assay for the CFTR-ΔF508 mutation; assay type: cell-based; details: CFBE41o- cells expressing CFTR ΔF508 and YFP reporter; forskolin 10.67 μM
REPORTED_METRIC: % Activation
Phrase the answer as number then unit, nothing more needed.

Some solved cases for reference:
Nc1cc(S(=O)(=O)c2ccccc2)cnc1-c1nnc(CO)o1 [Compound 61]    97.36%
CC(O)(c1nnc(-c2ncc(S(=O)(=O)c3ccc(OC(F)(F)F)cc3)cc2N)o1)C(F)(F)F (stereo not drawn) [Compound 3]    120.51%
COCc1nnc(-c2ncc(S(=O)(=O)c3ccc(OC(F)(F)F)cc3)cc2N)s1 [Compound 26]    101.69%
COCc1nnc(-c2ncc(S(=O)(=O)c3ccc(OC(F)(F)F)cc3)cc2N)o1 [Compound 37]    119.85%
Nc1cc(S(=O)(=O)c2ccc(OC(F)(F)F)cc2)cnc1-c1nc(C2CCOCC2)no1 [Compound 48]    6.28%

## Input Value lookup for % Activation; key = Nc1cc(S(=O)(=O)c2ccc(OC(F)(F)F)cc2)cnc1-c1nnc(COC2CCCC2)o1 [Compound 14]
## Output 116.8%

## Input Value lookup for % Activation; key = Nc1cc(S(=O)(=O)c2ccc(C(F)(F)F)cc2)cnc1-c1nnc(CO)s1 [Compound 62]
## Output 113%

## Input Value lookup for % Activation; key = CCOCc1nnc(-c2ncc(S(=O)(=O)c3ccc(OC(F)(F)F)cc3)cc2N)s1 [Compound 25]
## Output 104.42%
